Read-out: Tumor necrosis factor (Homo sapiens) (UniProt P01375)
Sequence (P01375 whole entry, looked up): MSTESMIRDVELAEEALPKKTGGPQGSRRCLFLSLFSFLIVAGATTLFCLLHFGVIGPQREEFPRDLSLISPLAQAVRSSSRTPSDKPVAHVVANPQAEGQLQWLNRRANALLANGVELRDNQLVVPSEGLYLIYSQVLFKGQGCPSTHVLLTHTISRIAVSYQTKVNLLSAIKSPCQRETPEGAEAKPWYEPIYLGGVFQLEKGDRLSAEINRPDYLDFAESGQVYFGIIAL
ASSAY_EXPLANATION: BSK_LPS_TNFa: BioMAP Diversity Plus: LPS Assay for Tumour Necrosis Factor alpha (TNFa) Biomarker Activity (AID 2283085)
CONDITION: primary human HUVEC with PBMC; actives raise or lower the signal
Experimental: BSK_LPS is a cell-based, multiplexed-readout assay that uses umbilical vein endothelium and peripheral blood mononuclear cells, a human vascular primary cell co-culture, with measurements taken at 24 hours after chemical dosing in a 96-well plate.BSK_LPS_TNFa is an assay component measured in the BSK_LPS assay. It measures TNF-a antibody related to regulation of gene expression using ELISA technology.Data from the assay component BSK_LPS_TNFa was analyzed into 1 assay endpoint. […]
Active and inactive are the calls of the source. Rule for the calls: active = hit-call score of the fitted dose curve at least 0.9, where 1 is the maximum; inactive = score below 0.9.
Classes used: label 1 for active, label 0 for inactive

| MOLECULE | LABEL |
| --- | --- |
| CC/C=C\C/C=C\C/C=C\CCCCCCCC(=O)OC | label 1 |
| Oc1c(Cl)cc(Cl)c(Cl)c1Cl | label 0 |
| CC(CCC(=O)O)(c1ccc(O)cc1)c1ccc(O)cc1 | label 0 |
| CC1=CC=C(C(C)C)CC1 | label 0 |
| CC(Cl)COP(=O)(OCC(C)Cl)OCC(C)Cl (stereo not given) | label 1 |

* * *

Read-out: Plasminogen activator inhibitor-1 (PAI1), SERPINE1 (gene 5054)
ASSAY_EXPLANATION: BSK_BE3C_PAI1: BioMAP Diversity Plus: BE3C Assay for Plasminogen activator inhibitor-1 (PAI1) Biomarker Activity (AID 2283037)
CONDITION: primary human bronchial epithelial cells; actives raise or lower the signal
Active and inactive are the calls of the source. The calls were made as follows: active = hit-call score of the fitted dose curve at least 0.9, where 1 is the maximum; inactive = score below 0.9.

| MOLECULE_SMILES | outcome |
| --- | --- |
| Clc1cc(Cl)c(Cl)c(Cl)c1Cl | inactive |
| CCCCCCOC(=O)CCCCC(=O)OCCCCCC | inactive |
| CCCCCCCO | inactive |
| C=CC(=O)NCOCCCC | inactive |

* * *

TARGET: Signal transducer and activator of transcription 3 (Homo sapiens) (UniProt P40763)
Sequence (P40763 whole entry, looked up): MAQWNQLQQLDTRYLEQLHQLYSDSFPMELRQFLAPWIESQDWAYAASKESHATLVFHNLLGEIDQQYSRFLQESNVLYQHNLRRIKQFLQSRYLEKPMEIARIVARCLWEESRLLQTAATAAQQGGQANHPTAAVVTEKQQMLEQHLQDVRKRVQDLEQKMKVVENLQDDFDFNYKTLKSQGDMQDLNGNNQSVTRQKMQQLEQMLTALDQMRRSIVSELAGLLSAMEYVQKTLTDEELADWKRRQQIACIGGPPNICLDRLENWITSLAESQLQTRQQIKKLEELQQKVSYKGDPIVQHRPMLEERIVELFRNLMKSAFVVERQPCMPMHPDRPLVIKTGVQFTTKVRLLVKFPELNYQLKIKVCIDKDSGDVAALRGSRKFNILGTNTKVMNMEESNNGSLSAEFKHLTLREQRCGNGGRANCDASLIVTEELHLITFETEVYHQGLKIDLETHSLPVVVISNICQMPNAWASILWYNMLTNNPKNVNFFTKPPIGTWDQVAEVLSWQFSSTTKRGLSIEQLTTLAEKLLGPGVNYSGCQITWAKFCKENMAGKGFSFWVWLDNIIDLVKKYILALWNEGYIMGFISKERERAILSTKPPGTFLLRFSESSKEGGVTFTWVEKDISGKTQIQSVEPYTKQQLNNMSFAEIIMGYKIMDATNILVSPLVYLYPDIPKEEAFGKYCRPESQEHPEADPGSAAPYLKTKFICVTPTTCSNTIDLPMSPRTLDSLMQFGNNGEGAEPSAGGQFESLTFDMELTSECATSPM
ASSAY_EXPLANATION: ATG_STAT3_CIS: Attagene CIS-FACTORIAL HepG2 Assay for human Signal Transducer and Activator of Transcription 3 (STAT3) (AID 2282963)
CONDITION: HepG2, Attagene cis-factorial STAT3 reporter transcription; actives raise or lower the signal
Calls of active or inactive are those of the source. Rule for the calls: active = hit-call score of the fitted dose curve at least 0.9, where 1 is the maximum; inactive = score below 0.9.

| COMPOUND | outcome |
| --- | --- |
| CCCCC(CC)COS(=O)(=O)O (stereo not drawn) | inactive |
| Nc1ncnc2nc[nH]c12 | inactive |
| NC(=O)Nc1ccccc1 | inactive |
| CC(=O)OCCc1ccccc1 | inactive |
| Cc1ccc([N+](=O)[O-])cc1N | inactive |
| CCCCCCC=O | inactive |
| CC(C)c1cccc(C(C)C)c1N | inactive |
| CC(=O)C(C)C | inactive |
| COc1ccc(-c2coc3cc(O)cc(O)c3c2=O)cc1 | inactive |
| CC(C)c1ccc(O)c(C(C)C)c1 | inactive |
| N#Cc1ccc(C(c2ccc(C#N)cc2)n2cncn2)cc1 | inactive |
| Oc1c(Cl)cc(Cl)c(Cl)c1Cl | inactive |
| C=CC(=O)OCC(C)OCC(C)OCC(C)OC(=O)C=C (stereo not drawn) | inactive |
| Cc1ccc2c(c1)CCCN2 | inactive |
| C=C(C)C(=O)OCC(O)COc1ccc(C(C)(C)c2ccc(OCC(O)COC(=O)C(=C)C)cc2)cc1 (stereo not drawn) | inactive |
| CCc1cccc(CC)c1 | inactive |
| Nc1ccc(O)c([N+](=O)[O-])c1 | inactive |
| Cc1c(Cl)cccc1Cl | inactive |
| Cc1noc(NS(=O)(=O)c2ccc(N)cc2)c1C | inactive |
| COC(=O)C=Cc1ccccc1 | inactive |
| OCCCc1ccccc1 | inactive |
| CCCCCCCCCCCC(=O)N(C)CC(=O)O | inactive |
| O=C(O)CCC(=O)O | inactive |
| Cc1ccccc1CCO | inactive |
| Nc1nc(N)nc(-c2ccccc2)n1 | inactive |
| O=C(O)CC(C(=O)O)S(=O)(=O)O (stereo not drawn) | inactive |
| CCC(=O)C1CC(C(C)C)CC=C1C (stereo not drawn) | inactive |
| CCN(CC)c1cccc(C)c1 | inactive |
| C=CCCCCCCCCOC(C)=O | inactive |
| CCN1CN(CC)CN(CC)C1 | inactive |
| CCCCC(C=O)CC (stereo not drawn) | inactive |
| C=CCCCCCCCCO | inactive |
| CCCCCCCCCCCC(C)=O | inactive |
| O=C(Oc1ccccc1)c1ccccc1C(=O)Oc1ccccc1 | inactive |
| O=S(=O)(O)c1ccc(Nc2nc(Nc3ccc(C=Cc4ccc(Nc5nc(Nc6ccc(S(=O)(=O)O)cc6)nc(N(CCO)CCO)n5)cc4S(=O)(=O)O)c(S(=O)(=O)O)c3)nc(N(CCO)CCO)n2)cc1 | inactive |
| CC1=NN(c2ccc(S(=O)(=O)O)cc2)C(=O)C1N=Nc1ccccc1 (stereo not drawn) | inactive |
| CCCCCCCC(=O)OCC | inactive |
| CC(C)CCCCCOC(=O)CS | inactive |
| CC/C=C\CCOC(=O)c1ccccc1O | inactive |
| Nc1cccc(N)n1 | inactive |
| CC1=CCC(C(C)C)C=C1 (stereo not drawn) | inactive |
| C1CCSC1 | inactive |
| CCC(C)C(=O)OC (stereo not drawn) | inactive |
| Cc1c(O)cccc1O | inactive |
| Cc1cccc(C(C)(C)C)c1O | inactive |
| C=C(C)C(=O)OCCOC(=O)C(=C)C | inactive |
| C=CC(=O)O[C@H]1C[C@@H]2CC[C@@]1(C)C2(C)C | inactive |
| O=C1CCCN1C1CCCCC1 | inactive |
